test system: phosphorylated γH2A.X and TP53BP1; assay: DNA damage marker analysis (immuno-staining); settings: Homo sapiens, WI-38, 24 h, read-out: Experiment 2, TP53BP1-P DNA damage foci staining (no H2O2 stress treatment), at 10 uM
parameter: activity at 10 µM (%)
Field format: number, assumed %, no unit text.

INPUT: Which activity at 10 µM is reported for this compound? O=C(Nc1cccc(Cl)c1)c1ccc([N+](=O)[O-])o1 [Gr-1D]
OUTPUT: 353

INPUT: CC1C(=O)C(C)C(c2cc(Cl)ccc2O)NC1c1cc(Cl)ccc1O (stereo not shown) [O6] , same question.
OUTPUT: 86.3

INPUT: O=C(/C(=C/c1ccc(Cl)cc1)c1nc2ccccc2[nH]1)c1ccccc1 [Gr-4D] , same question.
OUTPUT: 136

INPUT: COC(=O)CCc1sc2c(c1[N+](=O)[O-])NC(=O)CCC2 [O20] , same question.
OUTPUT: 108

INPUT: COc1ccc(C(=O)/C=C/c2ccc(F)cc2)c(OC)c1 [Gr-4A] , same question.
OUTPUT: 155

INPUT: O=C(Nc1ccc(Cl)c(Cl)c1)c1ccc([N+](=O)[O-])o1 [Gr-1G] , same question.
OUTPUT: 256

INPUT: CCc1ccc(Oc2nc3ccccn3c(=O)c2/C=C(\C#N)C(=O)NC2CCCCC2)cc1 [Gr-5A] , same question.
OUTPUT: 147

INPUT: COc1cccc(/C=C2\CN(C)C/C(=C\c3cccc(OC)c3OC)C2=O)c1OC [O23] , same question.
OUTPUT: 42.4

INPUT: Oc1ccccc1-c1noc(-c2ccccc2O)n1 [O27] , same question.
OUTPUT: 241

INPUT: O=[N+]([O-])c1ccccc1S(=O)(=O)Nc1cccc2cccnc12 [Gr-3A] , same question.
OUTPUT: 334

====

test system: WI-38 cells; conditions: asterisks indicate the loss of the ability to protect cells from H2O2 over time
parameter: H2O2-resistant

>  <compound>
O=C(NCc1cccnc1)/C(=C/c1ccc(-c2ccc(Cl)cc2)o1)S(=O)(=O)c1ccccc1

>  <H2O2-resistant>
YES

$$$$
>  <compound>
O=C(NCc1cccnc1)/C(=C\c1ccc(Br)cc1)S(=O)(=O)c1ccccc1

>  <H2O2-resistant>
YES (*)

$$$$
>  <compound>
CC(C)(C)c1ccc(OCC(=O)Nc2ccc3c4c(cccc24)C(=O)NC3=O)cc1

>  <H2O2-resistant>
YES

$$$$
>  <compound>
COc1cccc(/C=C2\CN(C)C/C(=C\c3cccc(OC)c3OC)C2=O)c1OC

>  <H2O2-resistant>
YES (*)

$$$$
>  <compound>
O=C(NCc1cccnc1)/C(=C\c1cccc(Oc2ccccc2)c1)S(=O)(=O)c1ccccc1

>  <H2O2-resistant>
YES (*)

$$$$
>  <compound>
CCc1ccc(Oc2nc3ccccn3c(=O)c2/C=C(\C#N)C(=O)NC2CCCCC2)cc1

>  <H2O2-resistant>
YES

$$$$
>  <compound>
O=C(/C=C/c1cn(-c2ccccc2)nc1-c1cccnc1)c1ccccc1

>  <H2O2-resistant>
YES

$$$$
>  <compound>
COc1cc2c(no[n+]2[O-])n2nnnc12

>  <H2O2-resistant>
YES

$$$$
>  <compound>
Oc1ncnc2sc3c(c12)CCC3

>  <H2O2-resistant>
YES

$$$$
>  <compound>
CC1C(=O)C(C)C(c2cc(Cl)ccc2O)NC1c1cc(Cl)ccc1O (centres unmarked)

>  <H2O2-resistant>
YES

$$$$

INPUT: Which H2O2-resistant is reported for this compound? `O=C(Nc1cc(C(F)(F)F)ccc1Cl)c1ccc([N+](=O)[O-])o1`
OUTPUT: YES

INPUT: `N=C1S/C(=C\c2cn(-c3ccccc3)nc2-c2cccs2)C(=O)N1c1nccs1` , same question.
OUTPUT: YES (*)

INPUT: `NS(=O)(=O)c1ccc(NC(=O)c2ccc([N+](=O)[O-])o2)cc1` , same question.
OUTPUT: YES

INPUT: `COc1ccc(/C=C2\SC(=N)N(c3nccs3)C2=O)cc1` , same question.
OUTPUT: YES

INPUT: `O=C(Nc1nc(C23CC4CC(CC(C4)C2)C3)cs1)C(c1ccccc1)c1ccccc1` , same question.
OUTPUT: YES

INPUT: `Cc1ccc(S(=O)(=O)Nc2cccc3cccnc23)cc1` , same question.
OUTPUT: YES

INPUT: `Cc1cc(N)n(-c2ccccc2C(=O)O)n1` , same question.
OUTPUT: YES

INPUT: `CCc1ccc(Oc2nc3ccccn3c(=O)c2/C=C(\C#N)C(=O)NCc2ccco2)cc1` , same question.
OUTPUT: YES

INPUT: `Nc1ccccc1S(=O)(=O)Nc1cccc2cccnc12` , same question.
OUTPUT: YES

INPUT: `COC(=O)CCc1sc2c(c1[N+](=O)[O-])NC(=O)CCC2` , same question.
OUTPUT: YES
